These measurements were taken from ChEMBL document CHEMBL1811907.

Experiment: Metabolic stability in human FSCLL cells assessed as cell lysate-mediated compound degradation at 10^-4 M after 24 hrs by LCMS analysis
Type: ADME, cell-based
Conditions: 100 µM
property: Stability

CC(C)C[C@H](NC(=O)CN)B(O)O :: Stable
CC(C)C[C@H](NC(=O)[C@H](C)N)B(O)O :: Stable
CC(C)C[C@H](NC(=O)[C@@H](N)Cc1ccccc1)B(O)O :: Stable

====

Recorded IC50 for the following molecules
Experiment: Inhibition of intracellular chymotrypsin-like activity of 20S proteasome in human HEK293 cells after 24 hrs by fluorescence plate reader
Format: cell-based
Conditions: HEK293, 24 h
Respond numerically; units are µM and should not be typed.

Below: 5 molecules and their reported IC50.
CC(C)C[C@H](NC(=O)CNC(=O)c1cnccn1)B(O)O :: 1.8
CC(C)C[C@H](NC(=O)[C@H](Cc1ccccc1)NC(=O)c1cnccn1)B(O)O :: 0.027
CC(C)C[C@H](NC(=O)[C@@H](N)Cc1ccc(-c2ccccc2)cc1)B(O)O :: 1.4
CC(C)C[C@H](NC(=O)[C@@H](N)C(c1ccccc1)c1ccccc1)B(O)O :: 1
CC(C)C[C@H](NC(=O)[C@@H](N)Cc1ccccc1F)B(O)O :: 3.1

Asked: Data request, read-out IC50, for CC(C)C[C@H](NC(=O)[C@@H](NC(=O)c1cnccn1)C(C)(C)O)B(O)O
Given back: 0.52

Asked: State the recorded IC50 for this entry: CC(C)C[C@H](NC(=O)[C@@H](N)Cc1ccc(F)c(F)c1)B(O)O
Given back: 2.1

Asked: Param item = CC(C)C[C@H](NC(=O)[C@@H](N)Cc1c(F)c(F)c(F)c(F)c1F)B(O)O ; retrieve measured IC50.
Given back: 3.3

Asked: Bench note: what IC50 did CC(C)C[C@H](NC(=O)[C@@H](N)Cc1cc(F)cc(F)c1)B(O)O show?
Given back: 0.79
